This section presents binders with their documented Kd values.
Tgt: T1, EGFR-mFc (human)
T1 construct: Soluble dimeric protein
Experiment summary: SPR 37C, receptor-capture; 37 C, receptor-capture format (EGFR-mFc captured)
Method: Measurements were conducted on a T100 BIACORE™ instrument. […] In the receptor-capture format, either EGFRvIII-mFc or EGFR-mFc, was captured on the BIACORE™ chip and the respective antibodies flowed over. Kinetic association (kₐ) and dissociation (kd) rate constants were determined by processing and fitting the data to a 1:1 binding model using Scrubber 2.0 curve fitting software. […]
Just the number please, in µM, no unit attached.

Binder	Kd / µM
H1H1912N (antibody, human IgG1, V domains shown, Human IgG1 Fc; also called H2M1912N (same variable domains)) VH: EVQLVESGGGLVQPGRSLRLSCAASGFTFDDYAMHWVRQVPGKGLEWVSGISWNSGSIGYADSVKGRFTISRDNAKNSLYLQMNSLRAEDTALYYCAKDIHDYGKDYYYYYGMDVWGQGTTVTVSS VL: EIALTQSPGTLSLSPGERATLSCRASQSVSSTYLAWYQQKPGQAPRLLIYGASSRATGIPDRFSGSGSGTDFTLTISRLEPEDFAVYYCQQYDSSPITFGQGTRLEIK	0.0229
H1H1911N (antibody, human IgG1, V domains shown, Human IgG1 Fc; also called H2M1911N (same variable domains)) VH: QVQLVESGGGVVQPGRSLRLSCAASGFTFSRYGIHWVRQAPGKGLEWVAVIWHDGSNKYYADSVKGRFTISRDNSKNTLYLQMTSLRAEDTAVYYCARDGLEIRDHYYYGMDVWGQGTTVTVSS VL: DIQMTQSPSTLSASVGDRVTITCRASQSTSSWLAWYQQKPGKAPTLLIYKASSLESGVPSKFSGSGSGTEFTLTISSLQPDDFATYYCQQYNRYSRTFGQGTKVEIK	0.224

Pending binder:
QUERY: Which Kd value is on record for H1H1915N (antibody, human IgG1, V domains shown, Human IgG1 Fc; also called H2M1915N (same variable domains)) VH: QVQLVESGGGVVQPGRSLRLSCAASGFTFSAYAMHWVRQAPGKGLEWVAVIWYDGSNKNYADSVKGRFTVSRDNSKNTLYLEMNSLRAEDTAVYYCARDLMVGVTNYWGQGTLVTVST VL: DVVMTQSPLSLPVALGQPASISCRSSQSLVYTDGNTYLNWFHQRPGQSPRRLIYKVSNRDSGVPDRFTGSGSGTDFTLKISRVEAEDVGVFYCMQGSHWPPYTFGQGTKLEIK ?
RESULT: 0.184
